Assay: Cytotoxicity evaluation (CCK8), PANC02
Conditions: mouse, PANC02 pancreatic cancer cells
OBSERVATION_TYPE: IC50 at 72 h

[[record]]
mol = "C[C@H](NC(=O)c1c(CCc2ccc(F)cc2)sc2c1CC(C)(C)OC2)c1ccc(C(=O)O)cc1"
observed = "> 100 µM"

[[record]]
mol = "C[C@H](NC(=O)c1c(CCc2cccc(C(F)(F)F)c2)sc2c1CCOC2)c1ccc(C(=O)O)cc1"
observed = "> 100 µM"

[[record]]
mol = "C[C@H](NC(=O)c1c(CCc2cccc(F)c2)sc2c1CCOC2)c1ccc(C(=O)O)cc1"
observed = "> 100 µM"

[[record]]
mol = "C[C@H](NC(=O)c1c(CCc2ccc(F)cc2)sc2c1CCOC2)c1ccc(C(=O)O)cc1"
observed = "> 100 µM"

[[record]]
mol = "O=C(O)c1ccc(CNC(=O)c2c(Cc3ccc(F)cc3)sc3c2CCOC3)cc1"
observed = "> 100 µM"


What the record says about C[C@H](NC(=O)c1c(C#Cc2ccc(F)cc2)sc2c1CCCCC2)c1ccc(C(=O)O)cc1 : IC50 at 72 h is > 100 µM

###

Listed compounds paired with reported IC50
Target: human prostaglandin E2 receptor EP1 subtype (Homo sapiens, UniProt P34995)
Sequence (P34995 whole entry): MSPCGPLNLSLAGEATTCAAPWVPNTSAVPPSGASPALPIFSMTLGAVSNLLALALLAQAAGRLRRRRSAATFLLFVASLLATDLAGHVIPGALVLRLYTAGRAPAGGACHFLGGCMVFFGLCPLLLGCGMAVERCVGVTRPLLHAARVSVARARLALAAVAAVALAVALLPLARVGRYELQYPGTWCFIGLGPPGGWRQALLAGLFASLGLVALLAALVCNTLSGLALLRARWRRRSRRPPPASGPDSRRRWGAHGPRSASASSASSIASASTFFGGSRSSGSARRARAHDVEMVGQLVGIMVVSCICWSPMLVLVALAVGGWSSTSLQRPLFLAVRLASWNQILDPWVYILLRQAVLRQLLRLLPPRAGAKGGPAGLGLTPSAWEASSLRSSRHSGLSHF
Test: Calcium flux of human prostaglandin E2 receptor EP1 subtype
Settings: CHO-K1-Gα16 cells overexpressing human EP1, activated by prostaglandin E2; read-out: hEP1 Ca^2+ IC50

[[record]]
mol = "C[C@H](NC(=O)c1c(Cc2ccc(F)cc2)sc2c1CCOC2)c1ccc(C(=O)O)cc1"
observed = "> 10 µM"

[[record]]
mol = "C[C@H](NC(=O)c1c(CCc2cccc(C(F)(F)F)c2)sc2c1CCOC2)c1ccc(C(=O)O)cc1"
observed = "> 10 µM"

[[record]]
mol = "C[C@H](NC(=O)c1c(C#Cc2ccc(F)cc2)sc2c1CCOC2)c1ccc(C(=O)O)cc1"
observed = "> 10 µM"

[[record]]
mol = "C[C@H](NC(=O)c1c(CCc2ccc(F)cc2)sc2c1CC(C)(C)OC2)c1ccc(C(=O)O)cc1"
observed = "> 10 µM"


# input for lookup
What the record says about C[C@H](NC(=O)c1c(NCc2ccc(C(F)(F)F)cc2)sc2c1CCOC2)c1ccc(C(=O)O)cc1 : IC50 is 1 to 10 µM

###

Biological target: UniProt:P32240
Test: Calcium flux of mouse prostaglandin E2 receptor EP4 subtype
Settings: CHO-K1-Gα16 cells overexpressing mEP4, calcium flux activated by prostaglandin E2; read-out: mEP4 Ca^2+ IC50
OBSERVATION_TYPE: IC50

Worked examples follow.
[[record]]
compound = "O=C(NCC1CCC(C(=O)O)CC1)c1c(Cc2ccc(F)cc2)sc2c1CCOC2 (stereo not drawn)"
study_target = "UniProt:P32240"
observed = "100 to 1000 nM"

[[record]]
compound = "C[C@H](NC(=O)c1c(Cc2cccc(C(F)(F)F)c2)sc2c1CCOC2)c1ccc(C(=O)O)cc1"
study_target = "UniProt:P32240"
observed = "< 100 nM"


# input for lookup
What the record says about C[C@H](NC(=O)c1c(C#Cc2ccc(F)cc2)sc2c1CCCCC2)c1ccc(C(=O)O)cc1 : IC50 is 100 to 1000 nM

###

Listed compounds paired with reported pIC50
Biological target: mouse PGE2 receptor EP4 subtype (mEP4) (Mus musculus)
Sequence (P32240 whole entry): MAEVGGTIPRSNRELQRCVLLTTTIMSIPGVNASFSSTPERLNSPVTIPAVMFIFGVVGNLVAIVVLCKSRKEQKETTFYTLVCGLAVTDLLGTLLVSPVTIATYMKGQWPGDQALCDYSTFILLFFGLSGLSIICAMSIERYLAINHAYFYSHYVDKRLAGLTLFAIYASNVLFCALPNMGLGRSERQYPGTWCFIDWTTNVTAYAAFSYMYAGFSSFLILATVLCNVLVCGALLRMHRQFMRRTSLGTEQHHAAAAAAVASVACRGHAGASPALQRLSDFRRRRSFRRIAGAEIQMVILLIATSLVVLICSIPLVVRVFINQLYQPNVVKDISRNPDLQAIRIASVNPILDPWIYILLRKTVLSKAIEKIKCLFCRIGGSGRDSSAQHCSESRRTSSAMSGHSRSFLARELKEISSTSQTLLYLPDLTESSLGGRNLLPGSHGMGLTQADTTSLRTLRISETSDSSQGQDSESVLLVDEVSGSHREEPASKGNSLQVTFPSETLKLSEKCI
Assay: Calcium flux of mouse prostaglandin E2 receptor EP4 subtype
Conditions: CHO-K1-Gα16 cells overexpressing mEP4, calcium flux activated by prostaglandin E2; read-out: mEP4 Ca^2+ IC50
pIC50: −log10 of the molar value.

[[record]]
mol = "C[C@H](NC(=O)c1c(CCc2ccc(F)cc2)sc2c1CCOC2)c1ccc(C(=O)O)cc1"
study_target = "mouse PGE2 receptor EP4 subtype (mEP4) (Mus musculus)"
observed = "> 7.00"

[[record]]
mol = "C[C@H](NC(=O)c1c(CCc2cccc(F)c2)sc2c1CCOC2)c1ccc(C(=O)O)cc1"
study_target = "mouse PGE2 receptor EP4 subtype (mEP4) (Mus musculus)"
observed = "6.00 to 7.00"

[[record]]
mol = "C[C@H](NC(=O)c1c(CCc2ccc(C(F)(F)F)cc2)sc2c1CCOC2)c1ccc(C(=O)O)cc1"
study_target = "mouse PGE2 receptor EP4 subtype (mEP4) (Mus musculus)"
observed = "> 7.00"


# input for lookup
What the record says about C[C@H](NC(=O)c1c(CCc2ccc(F)cc2)sc2c1CCC2)c1ccc(C(=O)O)cc1 : pIC50 is > 7.00
